measured_on: S100A1 (Homo sapiens)
Sequence (P23297 1-94): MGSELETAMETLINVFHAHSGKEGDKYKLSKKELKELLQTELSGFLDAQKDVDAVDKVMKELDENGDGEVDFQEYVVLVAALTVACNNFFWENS
The following molecules are shown together with reported Kd values.

# count of solved cases: 3
CSCC[C@@H](CC(=O)N[C@H]1CCCC[C@@H]1C(=O)NCC(=O)N[C@@H](CCCCNC(=O)c1ccc2c(c1)C1(OC2=O)c2ccc(O)cc2Oc2cc(O)ccc21)C(N)=O)NC(=O)[C@H]1CCCC[C@@H]1NC(=O)[C@H]1CCCC[C@@H]1NC(=O)C[C@@H](NC(=O)[C@H]1CCCC[C@@H]1N)[C@@H](C)O: > 1000 µM
CC(C)C[C@@H](CC(=O)N[C@H]1CCCC[C@@H]1C(=O)NCC(=O)N[C@@H](CCCCNC(=O)c1ccc2c(c1)C1(OC2=O)c2ccc(O)cc2Oc2cc(O)ccc21)C(N)=O)NC(=O)[C@H]1CCCC[C@@H]1NC(=O)[C@H]1CCCC[C@@H]1NC(=O)C[C@H](Cc1c[nH]c2ccccc12)NC(=O)[C@H]1CCCC[C@@H]1N: 53 µM
NC(=O)[C@H](CCCCNC(=O)c1ccc2c(c1)C1(OC2=O)c2ccc(O)cc2Oc2cc(O)ccc21)NC(=O)CNC(=O)[C@H]1CCCC[C@@H]1NC(=O)C[C@H](Cc1c[nH]c2ccccc12)NC(=O)[C@H]1CCCC[C@@H]1NC(=O)[C@H]1CCCC[C@@H]1NC(=O)C[C@H](Cc1c[nH]c2ccccc12)NC(=O)[C@H]1CCCC[C@@H]1N: 110 µM

// lookup Kd | system=S100A1 (Homo sapiens) | key= N=C(N)NCCC[C@@H](CC(=O)N[C@H]1CCCC[C@@H]1C(=O)N[C@H]1CCCC[C@@H]1C(=O)N[C@H](CC(=O)N[C@H]1CCCC[C@@H]1C(=O)NCC(=O)N[C@@H](CCCCNC(=O)c1ccc2c(c1)C1(OC2=O)c2ccc(O)cc2Oc2cc(O)ccc21)C(N)=O)Cc1ccccc1)NC(=O)[C@H]1CCCC[C@@H]1N 413 µM

// lookup Kd | system=S100A1 (Homo sapiens) | key= NC(=O)[C@H](CCCCNC(=O)c1ccc2c(c1)C1(OC2=O)c2ccc(O)cc2Oc2cc(O)ccc21)NC(=O)CNC(=O)[C@H]1CCCC[C@@H]1NC(=O)C[C@H](Cc1ccccc1)NC(=O)[C@H]1CCCC[C@@H]1NC(=O)[C@H]1CCCC[C@@H]1NC(=O)C[C@H](Cc1ccc(O)cc1)NC(=O)[C@H]1CCCC[C@@H]1N 110 µM

// lookup Kd | system=S100A1 (Homo sapiens) | key= CC(C)C[C@@H](CC(=O)N[C@H]1CCCC[C@@H]1C(=O)NCC(=O)N[C@@H](CCCCNC(=O)c1ccc2c(c1)C1(OC2=O)c2ccc(O)cc2Oc2cc(O)ccc21)C(N)=O)NC(=O)[C@H]1CCCC[C@@H]1NC(=O)[C@H]1CCCC[C@@H]1NC(=O)C[C@@H](NC(=O)[C@H]1CCCC[C@@H]1N)C(C)C 97 µM

// lookup Kd | system=S100A1 (Homo sapiens) | key= CC[C@H](C)[C@@H](CC(=O)N[C@H]1CCCC[C@@H]1C(=O)NCC(=O)N[C@@H](CCCCNC(=O)c1ccc2c(c1)C1(OC2=O)c2ccc(O)cc2Oc2cc(O)ccc21)C(N)=O)NC(=O)[C@H]1CCCC[C@@H]1NC(=O)[C@H]1CCCC[C@@H]1NC(=O)C[C@@H](NC(=O)[C@H]1CCCC[C@@H]1N)[C@@H](C)O > 1000 µM

// lookup Kd | system=S100A1 (Homo sapiens) | key= CC[C@H](C)[C@@H](CC(=O)N[C@H]1CCCC[C@@H]1C(=O)N[C@H]1CCCC[C@@H]1C(=O)N[C@H](CC(=O)N[C@H]1CCCC[C@@H]1C(=O)NCC(=O)N[C@@H](CCCCNC(=O)c1ccc2c(c1)C1(OC2=O)c2ccc(O)cc2Oc2cc(O)ccc21)C(N)=O)Cc1ccccc1)NC(=O)[C@H]1CCCC[C@@H]1N 210 µM
